- Test system: Differentiated U937 cells
- Assay Text: Cell viability MTT assay
- Format: cell-based, human
- Measurement Conditions: 24 h in 10% FCS; negative = apparent increase in viability
Friendly reminder: MTT Assay (Viability) 24 h d-U937, percentage loss of cell viability below 70% is Fulfilled, at or above is Not fulfilled.

>  <Compound>
COCC(=O)Nc1nccc(Oc2ccc(NC(=O)Nc3cc(C(C)(C)C)nn3-c3ccc(C)cc3)c(Cl)c2Cl)n1 [Example 90]

>  <Discrete Label>
Fulfilled

$$$$
>  <Compound>
CC(C)(C)c1cc(NC(=O)Nc2ccc(Oc3ccnc(NC(=O)NCCN4CCOCC4)c3)c(Cl)c2Cl)n(-c2ccc(CO)cc2)n1 [Example 71]

>  <Discrete Label>
Not fulfilled

$$$$
>  <Compound>
CNC(=O)Nc1cc(Oc2ccc(NC(=O)Nc3cc(C(C)(C)C)nn3-c3ccc(CO)cc3)c3ncccc23)ccn1 [Example 61]

>  <Discrete Label>
Fulfilled

$$$$
>  <Compound>
COCC(=O)Nc1cc(Oc2ccc(NC(=O)Nc3cc(C(C)(C)C)nn3-c3ccc(C)cc3)c(Cl)c2C(F)(F)F)ccn1 [Example 37]

>  <Discrete Label>
Fulfilled

$$$$
>  <Compound>
COCC(=O)Nc1cc(Oc2ccc(NC(=O)Nc3cc(C(C)(C)C)nn3-c3ccc(OC)cc3)c(Cl)c2Cl)ncn1 [Example 91]

>  <Discrete Label>
Fulfilled

$$$$
>  <Compound>
COCC(=O)Nc1cc(Oc2ccc(NC(=O)Nc3cc(C(C)(C)C)nn3-c3ccc(CO)cc3)c(Cl)c2Cl)ncn1 [Example 93]

>  <Discrete Label>
Not fulfilled

$$$$
>  <Compound>
CNC(=O)Nc1cc(Oc2ccc(NC(=O)Nc3cc(C(C)(C)C)nn3-c3ccc(C(=O)O)cc3)c(Cl)c2Cl)ccn1 [Example 60]

>  <Discrete Label>
Fulfilled

$$$$
>  <Compound>
COCC(=O)Nc1cc(Oc2ccc(NC(=O)Nc3cc(C(C)(C)C)nn3-c3ccc(CO)cc3)c(Cl)c2Cl)ccn1 [Example 49]

>  <Discrete Label>
Not fulfilled

$$$$
>  <Compound>
COCC(=O)Nc1cc(Oc2ccc(NC(=O)Nc3cc(C(C)(C)C)nn3-c3ccc(C)cc3)cc2C(F)(F)F)ccn1 [Example 30]

>  <Discrete Label>
Fulfilled

$$$$
>  <Compound>
CN(C)CC(=O)Nc1cc(Oc2ccc(NC(=O)Nc3cc(C(C)(C)C)nn3-c3ccc(CO)cc3)c(Cl)c2Cl)ccn1 [Example 46]

>  <Discrete Label>
Not fulfilled

$$$$
>  <Compound>
COc1ccc(-n2nc(C(C)(C)C)cc2NC(=O)Nc2ccc(Oc3ccnc(NC(=O)N(C)C)c3)c(Cl)c2Cl)cc1 [Example 64]

>  <Discrete Label>
Fulfilled

$$$$
>  <Compound>
COc1ccc(-n2nc(C(C)(C)C)cc2NC(=O)Nc2ccc(OCc3ccnc(NC(=O)N4CCCC4)c3)c(Cl)c2Cl)cc1 [Example 20]

>  <Discrete Label>
Fulfilled

$$$$
>  <Compound>
CCNC(=O)Nc1cc(Oc2ccc(NC(=O)Nc3cc(C(C)(C)C)nn3-c3ccc(OC)cc3)c(Cl)c2Cl)ccn1 [Example 12]

>  <Discrete Label>
Fulfilled

$$$$
>  <Compound>
CNC(=O)Nc1cc(Oc2ccc(NC(=O)Nc3cc(C(C)(C)C)nn3-c3ccc(CO)c(OC)c3)c(Cl)c2Cl)ccn1 [Example 53]

>  <Discrete Label>
Not fulfilled

$$$$
>  <Compound>
CN(C)[C@H]1CCN(C(=O)Nc2cc(Oc3ccc(NC(=O)Nc4cc(C(C)(C)C)nn4-c4ccc(CO)cc4)c(Cl)c3Cl)ccn2)C1 [Example 83]

>  <Discrete Label>
Fulfilled

$$$$
>  <Compound>
COCC(=O)Nc1cc(COc2ccc(NC(=O)Nc3cc(C(C)(C)C)nn3-c3ccc(C)cc3)c(Cl)c2Cl)ccn1 [Example 14]

>  <Discrete Label>
Fulfilled

$$$$
>  <Compound>
COc1cc(-n2nc(C(C)(C)C)cc2NC(=O)Nc2ccc(Oc3ccnc(NC(=O)N4CC[C@H](N(C)C)C4)c3)c(Cl)c2Cl)ccc1CO [Example 84]

>  <Discrete Label>
Fulfilled

$$$$
>  <Compound>
COCC(=O)Nc1cc(Oc2ccc(NC(=O)Nc3cc(C(C)(C)C)nn3-c3ccc(C)cc3)c(Br)c2)ccn1 [Example 32]

>  <Discrete Label>
Fulfilled

$$$$
>  <Compound>
CNC(=O)Nc1cc(Oc2ccc(NC(=O)Nc3cc(C(C)(C)C)nn3-c3ccc(C)cc3)c3ncccc23)ccn1 [Example 56]

>  <Discrete Label>
Fulfilled

$$$$
>  <Compound>
COc1ccc(-n2nc(C(C)(C)C)cc2NC(=O)Nc2ccc(Oc3ccnc(NC(=O)NCCN(C)C)c3)c(Cl)c2Cl)cc1 [Example 13]

>  <Discrete Label>
Fulfilled

$$$$
>  <Compound>
COc1ccc(-n2nc(C(C)(C)C)cc2NC(=O)Nc2ccc(Oc3ccnc(NC(=O)N4CCC(N(C)C)CC4)c3)c(Cl)c2Cl)cc1 [Example 87]

>  <Discrete Label>
Fulfilled

$$$$
>  <Compound>
CN(C)CCCC(=O)Nc1cc(Oc2ccc(NC(=O)Nc3cc(C(C)(C)C)nn3-c3ccc(CO)cc3)c(Cl)c2Cl)ncn1 [Example 22]

>  <Discrete Label>
Not fulfilled

$$$$
>  <Compound>
COCC(=O)Nc1cc(Oc2cc(Cl)c(NC(=O)Nc3cc(C(C)(C)C)nn3-c3ccc(C)cc3)cc2F)ccn1 [Example 38]

>  <Discrete Label>
Fulfilled

$$$$
>  <Compound>
COc1ccc(-n2nc(C(C)(C)C)cc2NC(=O)Nc2ccc(Oc3cc(NC(=O)NCCN(C)C)ncn3)c(Cl)c2Cl)cc1 [Example 100]

>  <Discrete Label>
Fulfilled

$$$$
>  <Compound>
COCC(=O)Nc1nccc(Oc2ccc(NC(=O)Nc3cc(C(C)(C)C)nn3-c3ccc(OC)cc3)c(Cl)c2Cl)n1 [Example 23]

>  <Discrete Label>
Fulfilled

$$$$
>  <Compound>
CN(C)CCCC(=O)Nc1cc(Oc2ccc(NC(=O)Nc3cc(C(C)(C)C)nn3-c3ccc(CO)cc3)c(Cl)c2Cl)ccn1 [Example 47]

>  <Discrete Label>
Not fulfilled

$$$$
>  <Compound>
CNC(=O)Nc1cc(Oc2ccc(NC(=O)Nc3cc(C(C)(C)C)nn3-c3ccc(O)cc3)c(Cl)c2Cl)ccn1 [Example 51]

>  <Discrete Label>
Fulfilled

$$$$
